Below, each entry is listed alongside its reported Plasma glucose 0.5 hr.
Tested on: STZ-induced diabetic rats
MEASUREMENT_PROTOCOL: OGTT in STZ-induced diabetic rats (Example 8)
Type: in vivo, rat
SETUP_CONDITIONS: 0.03 mg/kg oral; glucose 2 g/kg; mean ± S.E.M.
METRIC_NAME: Plasma glucose 0.5 hr (mg/dL)

>>> df
                                   molecule            metric_name  measurement
0  Cc1cc(OCCCN)ccc1Cc1c(O[C@@H]2O[C@H](CO)[C@@H](O)[C@H](O)[C@H]2O)n[nH]c1C(C)C [KGA-2586]  Plasma glucose 0.5 hr          351
1  Cc1cc(OCCCNCC(C)(C)C(N)=O)ccc1Cc1c(O[C@@H]2O[C@H](CO)[C@@H](O)[C@H](O)[C@H]2O)n[nH]c1C(C)C [mizagliflozin]  Plasma glucose 0.5 hr          356
2  Cc1cc(OCCCNCCC(N)=O)ccc1Cc1c(O[C@@H]2O[C@H](CO)[C@@H](O)[C@H](O)[C@H]2O)n[nH]c1C(C)C [KGA-2727]  Plasma glucose 0.5 hr          354
3  Cc1cc(OCCCNCC(N)=O)ccc1Cc1c(O[C@@H]2O[C@H](CO)[C@@H](O)[C@H](O)[C@H]2O)n[nH]c1C(C)C [KGA-2588]  Plasma glucose 0.5 hr          351

* * *

System: STZ-induced diabetic rats
MEASUREMENT_PROTOCOL: Oral mixed-carbohydrate tolerance test (OMCTT) in STZ-induced diabetic rats (Example 9)
Format: in vivo, rat
SETUP_CONDITIONS: 0.03 mg/kg oral; mixed-carbohydrate load; mean ± S.E.M.
Marks after values point to notes of the source that are not given here.
Below, each entry is listed alongside its reported ΔAUC (0-1) (% of Control).
METRIC_NAME: ΔAUC (0-1) (% of Control)

                                   molecule            subject_of_test            measurement
0  Cc1cc(OCCCNCCC(N)=O)ccc1Cc1c(O[C@@H]2O[C@H](CO)[C@@H](O)[C@H](O)[C@H]2O)n[nH]c1C(C)C  STZ-induced diabetic rats   83 ± 12 % of Control
1  Cc1cc(OCCCN)ccc1Cc1c(O[C@@H]2O[C@H](CO)[C@@H](O)[C@H](O)[C@H]2O)n[nH]c1C(C)C  STZ-induced diabetic rats  64 ± 2^x % of Control
2  Cc1cc(OCCCNCC(C)(C)C(N)=O)ccc1Cc1c(O[C@@H]2O[C@H](CO)[C@@H](O)[C@H](O)[C@H]2O)n[nH]c1C(C)C  STZ-induced diabetic rats   71 ± 15 % of Control
3  Cc1cc(OCCCNCC(N)=O)ccc1Cc1c(O[C@@H]2O[C@H](CO)[C@@H](O)[C@H](O)[C@H]2O)n[nH]c1C(C)C  STZ-induced diabetic rats    72 ± 9 % of Control

FYI, the data here is from patent US11596644B2.
